test system: KM mice; assay: Mouse cough test (ammonia-induced coughing); assay type: in vivo; conditions: mice, 30 mg/kg by gavage, 60 min after administration, coughs within 3 min (Table 5)
Marks after values point to notes of the source that are not given here.
parameter: Number of Coughs (time)

Before answering, review these 4 worked examples.
                                   compound      reported
0  COc1cc(C(C)C)c(Oc2cnc(N)nc2N)cc1S(N)(=O)=O [Positive control, gefapixant, reference compound]  23.83** time
1  C[C@@H](Cn1c(=O)cc(Nc2ccc(Oc3ncccc3F)cc2)n(Cc2ccc(Cl)cc2)c1=O)C(=O)NS(C)(=O)=O  16.11** time
2  COC(=O)[C@@H](C)Cn1c(=O)cc(Nc2ccc(Oc3ccccn3)cc2)n(Cc2ccc(Cl)cc2)c1=O   27.33* time
3  C[C@@H](Cn1c(=O)cc(Nc2ccc(Oc3ccccn3)cc2)n(Cc2ccc(Cl)cc2)c1=O)C(=O)O  15.00** time

Input: Which value of Number of Coughs (time) has been reported for CC(C)(Cn1c(=O)cc(Nc2ccc(Oc3ccccn3)cc2)n(Cc2ccc(Cl)cc2)c1=O)C(=O)O in the records?
Output: 40.17 time

* * *

molecular target: human P2X3 receptor (Homo sapiens); experiment: In vitro bioactivity evaluation: FLIPR antagonist mode, HEK 293 cells stably transfected with human P2X3 receptor, BZATP agonist
parameter: IC50

>>> df
                                   compound        reported
0  COC(=O)C(C)(C)Cn1c(=O)cc(Nc2ccc(Oc3cnccn3)cc2)n(Cc2ccc(Cl)cc2)c1=O [Compound 4]         < 10 nM
1  COC(=O)[C@@H](C)Cn1c(=O)cc(Nc2ccc(Oc3ccccn3)cc2)n(Cc2ccc(Cl)cc2)c1=O [Compound 8]   10.1 to 50 nM
2  C[C@@H](Cn1c(=O)cc(Nc2ccc(Oc3ccccc3)cc2)n(Cc2ccc(Cl)cc2)c1=O)C(=O)NS(C)(=O)=O [Compound 23]  50.1 to 100 nM

Please examine the following record next.
Input: Which value of IC50 has been reported for CC(C)(Cn1c(=O)cc(Nc2ccc(Oc3cnccn3)cc2)n(Cc2ccc(Cl)cc2)c1=O)C(=O)NS(C)(=O)=O [Compound 6] in the records?
Output: 10.1 to 50 nM

* * *

Number of Coughs (time) by entry:
system: KM mice; experiment: Mouse cough test (ammonia-induced coughing); type: in vivo; settings: mice, 30 mg/kg by gavage, 60 min after administration, coughs within 3 min (Table 6)
Marks after values point to notes of the source that are not given here.

>>> print(df.to_string())
                                   compound      reported
0  C[C@@H](Cn1c(=O)cc(Nc2ccc(Oc3ncccc3F)cc2)n(Cc2ccc(Cl)cc2)c1=O)C(=O)O [Comparative Example 1, reference compound]  24.12** time
1  C[C@@H](Cn1c(=O)cc(Nc2ccc(Oc3cccc(F)n3)cc2)n(Cc2ccc(Cl)cc2)c1=O)C(=O)NS(C)(=O)=O [Compound 24]  21.33** time
2  C[C@@H](Cn1c(=O)cc(Nc2ccc(Oc3ccccn3)cc2)n(Cc2ccc(Cl)cc2)c1=O)C(=O)O [Compound 7]  15.00** time
3  CC(C)(Cn1c(=O)cc(Nc2ccc(Oc3ccccn3)cc2)n(Cc2ccc(Cl)cc2)c1=O)C(=O)NS(C)(=O)=O [Compound 12]  17.17** time
4  C[C@@H](Cn1c(=O)cc(Nc2ccc(Oc3ncccc3F)cc2)n(Cc2ccc(Cl)cc2)c1=O)C(=O)NS(C)(=O)=O [Compound 16]  16.11** time

Input: Which value of Number of Coughs (time) has been reported for C[C@@H](Cn1c(=O)cc(Nc2ccc(Oc3ccccn3)cc2)n(Cc2ccc(Cl)cc2)c1=O)C(=O)NS(C)(=O)=O [Compound 9] in the records?
Output: 16.33** time

Input: Which value of Number of Coughs (time) has been reported for C[C@@H](Cn1c(=O)cc(Nc2ccc(Oc3cnccn3)cc2)n(Cc2ccc(Cl)cc2)c1=O)C(=O)NS(C)(=O)=O [Compound 3] in the records?
Output: 16.02** time

Input: Which value of Number of Coughs (time) has been reported for CS(=O)(=O)NC(=O)C1(Cn2c(=O)cc(Nc3ccc(Oc4ccccn4)cc3)n(Cc3ccc(Cl)cc3)c2=O)CC1 [Compound 15] in the records?
Output: 16.33** time

* * *

target: human P2X3 receptor (Homo sapiens, UniProt P56373); assay: In vitro bioactivity evaluation: FLIPR antagonist mode, HEK 293 cells stably transfected with human P2X3 receptor, BZATP agonist
Sequence (P56373 whole entry): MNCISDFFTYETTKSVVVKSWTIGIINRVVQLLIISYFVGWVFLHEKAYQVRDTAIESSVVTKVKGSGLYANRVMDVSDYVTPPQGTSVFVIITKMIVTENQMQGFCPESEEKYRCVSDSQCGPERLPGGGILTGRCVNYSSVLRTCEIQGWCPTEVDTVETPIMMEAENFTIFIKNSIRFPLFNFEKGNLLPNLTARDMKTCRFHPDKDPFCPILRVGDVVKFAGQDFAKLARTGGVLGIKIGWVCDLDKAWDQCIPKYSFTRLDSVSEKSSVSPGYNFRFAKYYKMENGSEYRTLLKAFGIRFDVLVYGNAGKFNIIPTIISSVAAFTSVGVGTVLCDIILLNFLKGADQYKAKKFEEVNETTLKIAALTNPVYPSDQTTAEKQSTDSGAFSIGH
parameter: IC50

Before answering, review these 3 worked examples.
In [3]: df
Out[3]:
                                   compound  parameter  reported
0  CC(C)(Cn1c(=O)cc(Nc2ccc(Oc3ccccn3)cc2)n(Cc2ccc(Cl)cc2)c1=O)C(=O)O [Compound 10]       IC50   < 10 nM
1  COC(=O)[C@@H](C)Cn1c(=O)cc(Nc2ccc(Oc3cnccn3)cc2)n(Cc2ccc(Cl)cc2)c1=O [Compound 1]       IC50   < 10 nM
2  C[C@@H](Cn1c(=O)cc(Nc2ccc(Oc3ncccc3F)cc2)n(Cc2ccc(Cl)cc2)c1=O)C(=O)NS(C)(=O)=O [Compound 16]       IC50   < 10 nM

Input: Report IC50 for C[C@@H](Cn1c(=O)cc(Nc2ccc(Oc3ccc(OC(F)F)cn3)cc2)n(Cc2ccc(Cl)cc2)c1=O)C(=O)NS(C)(=O)=O [Compound 20] tested on human P2X3 receptor (Homo sapiens, UniProt P56373).
Output: 10.1 to 50 nM

* * *

biological target: human P2X3 receptor (Homo sapiens); experiment: In vitro bioactivity evaluation: FLIPR antagonist mode, HEK 293 cells stably transfected with human P2X3 receptor, BZATP agonist
pIC50: −log10 of the molar value.
pIC50 by entry:

                                   compound  parameter  reported
0  C[C@@H](Cn1c(=O)cc(Nc2ccc(Oc3ccccn3)cc2)n(Cc2ccc(Cl)cc2)c1=O)C(=O)O      pIC50    > 8.00

Please examine the following record next.
Input: Report pIC50 for C[C@@H](Cn1c(=O)cc(Nc2ccc(Oc3ncccc3F)cc2)n(Cc2ccc(Cl)cc2)c1=O)C(=O)O [Comparative Example 1, reference compound] tested on human P2X3 receptor (Homo sapiens).
Output: 7.30 to 8.00

* * *

test system: KM mice; assay: Mouse cough test (ammonia-induced coughing); type: in vivo; details: mice, 10 mg/kg by gavage, 60 min after administration, coughs within 3 min
Marks after values point to notes of the source that are not given here.
parameter: Number of Coughs (time)

Before answering, review these 3 worked examples.
>>> print(df.to_string())
                                   molecule        reported
0  C[C@@H](Cn1c(=O)cc(Nc2ccc(Oc3ccccn3)cc2)n(Cc2ccc(Cl)cc2)c1=O)C(=O)NS(C)(=O)=O  19.54**^Δ time
1  COc1cc(C(C)C)c(Oc2cnc(N)nc2N)cc1S(N)(=O)=O [Positive control, gefapixant, reference compound]      38.83 time
2  C[C@@H](Cn1c(=O)cc(Nc2ccc(Oc3ccccn3)cc2)n(Cc2ccc(Cl)cc2)c1=O)C(=O)O  20.83**^Δ time

Input: Which value of Number of Coughs (time) has been reported for C[C@@H](Cn1c(=O)cc(Nc2ccc(Oc3cnccn3)cc2)n(Cc2ccc(Cl)cc2)c1=O)C(=O)NS(C)(=O)=O in the records?
Output: 19.83**^Δ time

Input: Which value of Number of Coughs (time) has been reported for C[C@@H](Cn1c(=O)cc(Nc2ccc(Oc3cccc(F)n3)cc2)n(Cc2ccc(Cl)cc2)c1=O)C(=O)NS(C)(=O)=O in the records?
Output: 24.14**^Δ time

Input: Which value of Number of Coughs (time) has been reported for CS(=O)(=O)NC(=O)C1(Cn2c(=O)cc(Nc3ccc(Oc4ccccn4)cc3)n(Cc3ccc(Cl)cc3)c2=O)CC1 in the records?
Output: 20.83**^Δ time

Input: Which value of Number of Coughs (time) has been reported for CC(C)(Cn1c(=O)cc(Nc2ccc(Oc3ccccn3)cc2)n(Cc2ccc(Cl)cc2)c1=O)C(=O)NS(C)(=O)=O in the records?
Output: 21.17**^Δ time

Input: Which value of Number of Coughs (time) has been reported for C[C@@H](Cn1c(=O)cc(Nc2ccc(Oc3ncccc3F)cc2)n(Cc2ccc(Cl)cc2)c1=O)C(=O)NS(C)(=O)=O in the records?
Output: 15.13**^Δ time

* * *

test system: KM mice; assay: Mouse cough test (ammonia-induced coughing); type: in vivo; details: mice, 3 mg/kg by gavage, 60 min after administration, coughs within 3 min
Marks after values point to notes of the source that are not given here.
Number of Coughs (time) by entry:

Before answering, review these 4 worked examples.
                              smiles_record      reported
0  CS(=O)(=O)NC(=O)C1(Cn2c(=O)cc(Nc3ccc(Oc4ccccn4)cc3)n(Cc3ccc(Cl)cc3)c2=O)CC1  24.83** time
1  C[C@@H](Cn1c(=O)cc(Nc2ccc(Oc3cnccn3)cc2)n(Cc2ccc(Cl)cc2)c1=O)C(=O)NS(C)(=O)=O  21.14** time
2  C[C@@H](Cn1c(=O)cc(Nc2ccc(Oc3cccc(F)n3)cc2)n(Cc2ccc(Cl)cc2)c1=O)C(=O)NS(C)(=O)=O  25.45** time
3  C[C@@H](Cn1c(=O)cc(Nc2ccc(Oc3ccccn3)cc2)n(Cc2ccc(Cl)cc2)c1=O)C(=O)NS(C)(=O)=O  25.37** time

Input: Which value of Number of Coughs (time) has been reported for C[C@@H](Cn1c(=O)cc(Nc2ccc(Oc3ncccc3F)cc2)n(Cc2ccc(Cl)cc2)c1=O)C(=O)NS(C)(=O)=O in the records?
Output: 23.81** time

Input: Which value of Number of Coughs (time) has been reported for CC(C)(Cn1c(=O)cc(Nc2ccc(Oc3ccccn3)cc2)n(Cc2ccc(Cl)cc2)c1=O)C(=O)NS(C)(=O)=O in the records?
Output: 33.17 time

Input: Which value of Number of Coughs (time) has been reported for C[C@@H](Cn1c(=O)cc(Nc2ccc(Oc3ccccn3)cc2)n(Cc2ccc(Cl)cc2)c1=O)C(=O)O in the records?
Output: 23.34** time

Reference source: patent US20240391904A1
